test: Biodistribution in NSG mice bearing human SK-MEL-1 melanoma xenografts
Type: in vivo, mouse
conditionParameters: male, NSG, mouse, SK-MEL-1 tumor, iv, 5.9 pmol, total radioactivity, 1 h p.i., without co-injection, total injected peptide mass 5.9 ± 0.90 pmol, n = 4
propertyMeasured: tissue uptake at 1 h (%ID/g)
Give bare numbers, in %ID/g.

Input line: For CCCC[C@H](NC(=O)CN1CCC(NC(=O)CN2CCN(CC(=O)O)CCN(CC(=O)O)CCN(CC(=O)O)CC2)CC1)C(=O)N[C@H]1CC(=O)NCCCC[C@@H](C(N)=O)NC(=O)[C@H](Cc2c[nH]c3ccccc23)NC(=O)[C@H](CCCNC(=N)N)NC(=O)[C@@H](Cc2ccccc2)NC(=O)[C@H](Cc2c[nH]cn2)NC1=O [[^68Ga]Ga-CCZ01048, metal not drawn] , what is its reported tissue uptake at 1 h?
Output line: 6.15

###

test: Biodistribution in NSG mice bearing human SK-MEL-1 melanoma xenografts
Type: in vivo, mouse
conditionParameters: male, NSG, mouse, SK-MEL-1 tumor, iv, total radioactivity, 1 h p.i., co-injection of 50 pmol ^natGa-CCZ01048, total peptide mass 57.3 ± 1.0 pmol, n = 4
propertyMeasured: tissue uptake at 1 h (%ID/g)
Answers are plain numbers, in %ID/g.

Input line: Field request: tissue uptake at 1 h | item: CCCC[C@H](NC(=O)CN1CCC(NC(=O)CN2CCN(CC(=O)O)CCN(CC(=O)O)CCN(CC(=O)O)CC2)CC1)C(=O)N[C@H]1CC(=O)NCCCC[C@@H](C(N)=O)NC(=O)[C@H](Cc2c[nH]c3ccccc23)NC(=O)[C@H](CCCNC(=N)N)NC(=O)[C@@H](Cc2ccccc2)NC(=O)[C@H](Cc2c[nH]cn2)NC1=O [[^68Ga]Ga-CCZ01048, metal not drawn]
Output line: 1.31

Source of measurements: paper PMC6753210
